- Tested on: NK-YS (IL-2 2.5 ng/mL);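 note: normalised to DMSO-only wells as negative and benzethonium chloride as positive control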
- TEST DESCRIPTION: percent inhibition of viability; higher = more inhibition
- EXPERIMENTAL CONTEXT: 72 h; 100 nM
MEASURED METRIC: percent inhibition of viability (%)
// return numeric value only (unit: %, not printed)

Form: molecule = CC(C)NC[C@@H](C(=O)N1CCN(c2ncnc3c2[C@H](C)C[C@H]3O)CC1)c1ccc(Cl)cc1 [GDC-0068] (max concentration tested 10000 nM) ; percent inhibition of viability = 8.96

Per the record, N#CC1(c2ccc(NC(=O)c3cccnc3NCc3ccncc3)cc2)CCCC1 [Apatinib] (max concentration tested 10000 nM) has percent inhibition of viability of 4.05

The molecule c1ccc(Cn2c(-c3ccc(OC[C@H](C4CCNCC4)n4c(-c5ccccc5)nc5ccccc54)cc3)nc3ccccc32)cc1 [deltarasin] (max concentration tested 10000 nM) showed percent inhibition of viability equal to 0.9

percent inhibition of viability for CCn1c(C(=O)N(C2CC2)C2CC2)cc2c3c(ncn3C)c(Nc3cc(C)n(C)n3)nc21 (max concentration tested 10000 nM) is 4.46

molecule CO[C@H](C(=O)[C@@H](O)[C@@H](C)O)[C@@H]1Cc2cc3cc(O[C@H]4C[C@@H](O[C@@H]5C[C@@H](O)[C@H](O)[C@@H](C)O5)[C@H](O)[C@@H](C)O4)c(C)c(O)c3c(O)c2C(=O)[C@H]1O[C@H]1C[C@@H](O[C@@H]2C[C@@H](O)[C@@H](O[C@@H]3C[C@](C)(O)[C@H](O)[C@@H](C)O3)[C@@H](C)O2)[C@H](O)[C@@H](C)O1 [Plicamycin] (max concentration tested 10000 nM) , percent inhibition of viability observed: 97.1

Reported percent inhibition of viability for C=CCn1c(=O)c2cnc(Nc3ccc(N4CCN(C)CC4)cc3)nc2n1-c1cccc(C(C)(C)O)n1 [MK1775] (max concentration tested 10000 nM) was 10.9

Reported percent inhibition of viability ( Cc1ccc(-n2nc(C(C)(C)C)cc2NC(=O)Nc2ccc(OCCN3CCOCC3)c3ccccc23)cc1 [Doramapimod] (max concentration tested 10000 nM) ) = 5.33

Per the records, this molecule ( Cn1c(CCCC(=O)O)nc2cc(N(CCCl)CCCl)ccc21 [Bendamustine] (max concentration tested 10000 nM) ) has percent inhibition of viability equal to 8.61

Record summary for CC1(C)NC(=O)N(c2ccc([N+](=O)[O-])c(C(F)(F)F)c2)C1=O [Nilutamide] (max concentration tested 10000 nM) : reported percent inhibition of viability = -3.78

Entry under test: COc1cc([C@@H]2c3cc4c(cc3[C@@H](O[C@@H]3O[C@@H]5CO[C@@H](C)O[C@H]5[C@H](O)[C@H]3O)[C@H]3COC(=O)[C@H]23)OCO4)cc(OC)c1O [Etoposide] (max concentration tested 10000 nM) . Its percent inhibition of viability was 29.1

For reference, reported percent inhibition of viability for NC(=O)c1cccc(-c2cccc(OC(=O)NC3CCCCC3)c2)c1 [URB597] (max concentration tested 1000 nM) stands at 5.17

The molecule identified as Cc1ccc(C(=O)Nc2ccc(CN3CCN(C)CC3)c(C(F)(F)F)c2)cc1C#Cc1cnc2cccnn12 [Ponatinib] (max concentration tested 1000 nM) registered its percent inhibition of viability at 8.88

Short answer for C[C@]12C=CC(=O)C=C1CC[C@@H]1[C@@H]2[C@@H](O)C[C@@]2(C)[C@H]1CC[C@]2(O)C(=O)CO [Prednisolone] (max concentration tested 10000 nM) : percent inhibition of viability was -1.97

Per the record, CCc1cnn2c(NCc3ccc[n+]([O-])c3)cc(N3CCCC[C@H]3CCO)nc12 [Dinaciclib] (max concentration tested 1000 nM) has percent inhibition of viability of 104

Just so you know, measured percent inhibition of viability for CC/C(=C(\c1ccccc1)c1ccc(OCCN(C)C)cc1)c1ccccc1 [Tamoxifen] (max concentration tested 10000 nM) came out at -3.79

Form field percent inhibition of viability, entry C=CCN(/C=C1/C(=O)O[C@H](COC)[C@@]2(C)C1=C(O)C(=O)C1=C2[C@H](OC(C)=O)C[C@]2(C)C(=O)CC[C@@H]12)CC=C [Sonolisib] (max concentration tested 10000 nM) : -0.43

Per the records, this molecule ( COc1cccc2c1C(=O)c1c(O)c3c(c(O)c1C2=O)C[C@@](O)(/C(CO)=N/NC(=O)CCCCCN1C(=O)C=CC1=O)C[C@@H]3O[C@H]1C[C@H](N)[C@H](O)[C@H](C)O1 [Aldoxorubicin] (max concentration tested 1000 nM) ) has percent inhibition of viability equal to 83.1

get_value(item= Nc1nc(OCc2cc(Br)cs2)c2[nH]cnc2n1 [Lomeguatrib] (max concentration tested 10000 nM) , readout=percent inhibition of viability) returns -4.74

Entry under test: Cc1csc(-c2nnc(Nc3ccc(Oc4ncccc4-c4ccnc(N)n4)cc3)c3ccccc23)c1 [AMG-900] (max concentration tested 1000 nM) . Its percent inhibition of viability was 59.6

The molecule identified as O=C1NC(=O)[C@@H](c2cn3c4c(cccc24)CCC3)[C@@H]1c1c[nH]c2ccccc12 [Tivantinib] (max concentration tested 1000 nM) registered its percent inhibition of viability at 31.1

Lab note: CC[C@H](CC#N)OC(=O)N[C@@H](C)c1cccc(NC(=O)Nc2ccc(-c3cnco3)c(OC)c2)c1 [AVN944] (max concentration tested 10000 nM) gave percent inhibition of viability of 45.5
